# experimental target: T1, huMICA*008 alpha 3-his (human)
# T1 construct: whole construct entry: GS, alpha 3 domain (Thr204-Ser297), GNS, His8; also the construct of the FPOP experiment; also called MICA008.His; MICA*008 alpha3 construct
# T1 chain: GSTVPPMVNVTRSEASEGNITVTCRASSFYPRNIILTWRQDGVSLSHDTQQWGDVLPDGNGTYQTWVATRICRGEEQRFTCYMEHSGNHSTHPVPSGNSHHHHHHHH
# protocol details: SPR, Biacore 8K, antibody on Protein A chip
Classification field. Basis: Kd. Definitions: low = under 1 nM, medium = from 1 nM up to 5 nM, high = 5 nM and over

Ask: Place this binder in its band: 1D5v3 (antibody, IgG1, V domains shown, humanized variant of 1D5) VH: EIQLVQSGAEVKKPGASVKVSCKASGYAFTSQNIYWVRQAPGQGLEWIGYIEPYNVVPMYNPKFKGRATLTVDKSTSTAYLELSSLRSEDTAVYYCARSGSSNFDYWGQGTLVTVSS VL: EIVLTQSPDFQSVTPKEKVTITCSASSSISSHYLHWYQQKPDQSPKLLIYRTSNLASGVPSRFSGSGSGTDYTLTINSLEAEDAATYYCQQGSSLPLTFGQGTKVEIK
Reply: low

Ask: And 15F11 (antibody, V domains shown, mouse variable domains) VH: EIQLQQSGPELVKPGASVRVSCKPSGYAFTSNNIYWVKQSRRKSLEWIGYIDPYIGRIIYNQQFKDKATLTVDKSSSTAYMHLNSLTSEDSAVYYCSRSGERSNFDYWGQGTTLTVSS VL: EIVLTQSPTAMAASPGEKITITCSASSSISSNYLHWYQQKPGFSPKLLIYRTSNLASGVPARFSGSGSGTSYSLTIGPMEAEDVATYYCQQGGSLPLTFGAGTKVEIK ?
Reply: low

Ask: And 15F11v1 (antibody, IgG1, V domains shown, humanized variant of 15F11) VH: EVQLVQSGAEVKKPGASVKVSCKASGYAFTSNNIYWVRQAPGQGLEWIGYIDPYIGRIIYNQQFKDRVTITADTSTSTAYLELSSLRSEDTAVYYCSRSGERSNFDYWGQGTLVTVSS VL: EIVLTQSPATLSLSPGERATLSCSASSSISSNYLHWYQQKPGQAPRLLIYRTSNLASGIPARFSGSGSGTDFTLTISSLEPEDFAVYYCQQGGSLPLTFGQGTKVEIK ?
Reply: high

Ask: And 1D5v24 (antibody, IgG1, V domains shown, humanized variant of 1D5) VH: EVQLVQSGAEVKKPGASVKVSCKASGYAFTSQNIYWVRQAPGQGLEWIGYIEPYNVVPMYNPKFKGRVTITVDKSTSTAYLELSSLRSEDTAVYYCARSGSSNFDYWGQGTLVTVSS VL: DIQLTQSPSSLSASVGDRVTITCSASSSISSHYLHWYQQKPGKSPKLLIYRTSNLASGVPSRFSGSGSGTDYTLTISSLQPEDFATYYCQQGSSLPLTFGQGTKVEIK ?
Reply: medium

Ask: And 1D5v4 (antibody, IgG1, V domains shown, humanized variant of 1D5) VH: EVQLVQSGAEVKKPGASVKVSCKASGYAFTSQNIYWVRQAPGQGLEWIGYIEPYNVVPMYNPKFKGRVTITRDTSTSTAYLELSSLRSEDTAVYYCARSGSSNFDYWGQGTLVTVSS VL: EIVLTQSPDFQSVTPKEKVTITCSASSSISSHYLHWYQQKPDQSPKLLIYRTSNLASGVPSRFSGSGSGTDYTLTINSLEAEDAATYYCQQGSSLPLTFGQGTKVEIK ?
Reply: high

These entries and their values trace back to patent US20200055939A1.
